compounds and their reported IC50
test system: SW620 human colorectal cancer cells; test: MTT based cell viability assay: potentiation of the growth inhibiting activity of MMS; conditions: read-out: IC50 (nM), potentiation of the growth inhibiting activity of MMS; SW620 cells, 1.7 μg/ml MMS, 5 days (120 hours), MTT
READOUT LABEL: IC50 (nM)

• C[C@]1(c2nc3c(C(N)=O)cccc3[nH]2)CCCN1 [ABT-888, reference compound] = 2640
• Cc1ccc2c(=O)[nH]c(=O)n(Cc3cccc(C(=O)N4CCN(C(=O)C5CCCC5)CC4)c3)c2c1 = 5540
• O=C(c1cccc(Cn2c(=O)[nH]c(=O)c3ccccc32)c1)N1CCN(c2ncccn2)CC1 = 12
• O=C(c1cc(Cn2c(=O)[nH]c(=O)c3ccccc32)ccc1F)N1CCN(c2ncccn2)CC1 = 9.8

* * *

log10(IC50) reference
tested on: SW620 human colorectal cancer cells; assay: MTT based cell viability assay: potentiation of the growth inhibiting activity of MMS; settings: Homo sapiens, SW-620, 120 h, read-out: IC50 (nM), potentiation of the growth inhibiting activity of MMS, SW620 cells, 1.7 μg/ml MMS, 5 days (120 hours), MTT
READOUT LABEL: log10(IC50) (log10 of the value in nM)

* O=C(c1cccc(Cn2c(=O)[nH]c(=O)c3cc(Cl)ccc32)c1)N1CCN(c2ncccn2)CC1 | 1.43
* O=C(c1cc(Cn2c(=O)[nH]c(=O)c3c(Cl)cccc32)ccc1F)N1CCN(C(=O)C2CCCCC2)CC1 | 0.90
* O=C(c1cccc(Cn2c(=O)[nH]c(=O)c3ccc(Cl)cc32)c1)N1CCN(c2ncccn2)CC1 | 2.70
* O=C(c1ccco1)N1CCN(C(=O)c2cc(Cn3c(=O)[nH]c(=O)c4cc(F)ccc43)ccc2F)CC1 | 0.83
* O=C(Cc1ccc2ccccc2c1)Nc1cccc(Cn2c(=O)[nH]c(=O)c3ccccc32)c1 | 2.99
* O=C(c1cccc(Cn2c(=O)[nH]c(=O)c3ccccc32)c1)N1CCN(C(=O)C2CCOCC2)CC1 | 2.86
* O=C(c1cccc(Cn2c(=O)[nH]c(=O)c3c(F)cccc32)c1)N1CCN(C(=O)C2CCC2)CC1 | 1.69

* * *

tested on: SW620 human colorectal cancer cells; assay: MTT based cell viability assay: potentiation of the growth inhibiting activity of MMS; details: Homo sapiens, SW-620, 120 h, read-out: IC50 (nM), potentiation of the growth inhibiting activity of MMS, SW620 cells, 1.7 μg/ml MMS, 5 days (120 hours), MTT
Friendly reminder: IC50 below 80 nM is Met, at or above is Not met.

• O=C(c1cc(Cn2c(=O)[nH]c(=O)c3cc(F)ccc32)ccc1F)N1CCN(C(=O)C2CC2)CC1 = Met
• O=C(c1ccccc1)N1CCN(C(=O)c2cc(Cn3c(=O)[nH]c(=O)c4c(F)cccc43)ccc2F)CC1 = Met
• O=C(c1ccc(Br)cc1)N1CCN(C(=O)c2cccc(Cn3c(=O)[nH]c(=O)c4ccccc43)c2)CC1 = Not met
• O=C(c1cccs1)N1CCN(C(=O)c2cc(Cn3c(=O)[nH]c(=O)c4cc(F)ccc43)ccc2F)CC1 = Met
• O=C(c1cccc(Cn2c(=O)[nH]c(=O)c3ccccc32)c1F)N1CCN(c2ncccn2)CC1 = Met
• Cc1ccc2c(c1)c(=O)[nH]c(=O)n2Cc1ccc(F)c(C(=O)N2CCN(C(=O)C3CCCC3)CC2)c1 = Met
• O=C(c1cccs1)N1CCN(C(=O)c2cc(Cn3c(=O)[nH]c(=O)c4c(Cl)cccc43)ccc2F)CC1 = Met
• O=C(c1cccc(Cn2c(=O)[nH]c(=O)c3ccccc32)c1F)N1CCN(C(=O)C2CCCC2)CC1 = Not met
• O=C(c1cc(Cn2c(=O)[nH]c(=O)c3c(F)cccc32)ccc1F)N1CCN(C(=O)C2CC2)CC1 = Met
• O=C(c1cccc(Cn2c(=O)[nH]c(=O)c3ccccc32)c1)c1ccc2nncn2c1 = Not met
• O=C(c1cc(Cn2c(=O)[nH]c(=O)c3c(F)cccc32)ccc1F)N1CCN(C(=O)C2CCCC2)CC1 = Met
• O=C(c1ccc(Cn2c(=O)[nH]c(=O)c3ccccc32)cc1)N1CCN(c2ncccn2)CC1 = Not met
• Cc1cccc2c1c(=O)[nH]c(=O)n2Cc1cccc(C(=O)N2CCN(c3ncccn3)CC2)c1 = Not met
• Cc1ccc2c(c1)c(=O)[nH]c(=O)n2Cc1cccc(C(=O)N2CCN(c3ncccn3)CC2)c1 = Not met
• O=C(c1ccc(F)cc1)N1CCN(C(=O)c2cccc(Cn3c(=O)[nH]c(=O)c4ccccc43)c2)CC1 = Not met
• O=C(c1ccc(F)c(Cn2c(=O)[nH]c(=O)c3cc(Cl)ccc32)c1)N1CCN(c2ncccn2)CC1 = Met
• O=C(c1cccc(Cn2c(=O)[nH]c(=O)c3ccc(F)cc32)c1)N1CCN(c2ncccn2)CC1 = Not met
• O=C(c1cccc(Cn2c(=O)[nH]c(=O)c3ccc(F)cc32)c1)N1CCN(C(=O)C2CCCC2)CC1 = Not met
• O=C(NC1CCCCC1)N1CCN(C(=O)c2cccc(Cn3c(=O)[nH]c(=O)c4ccccc43)c2)CC1 = Not met
• O=C(c1ccc(F)c(Cn2c(=O)[nH]c(=O)c3cc(F)ccc32)c1)N1CCN(c2ccccn2)CC1 = Met
• O=C(c1cc(Cn2c(=O)[nH]c(=O)c3c(Cl)cccc32)ccc1F)N1CCN(C(=O)C2CCC2)CC1 = Met
• O=C(c1cc(Cn2c(=O)[nH]c(=O)c3c(F)cccc32)ccc1F)N1CCN(C(=O)C2CCCCC2)CC1 = Met
• O=C(c1ccoc1)N1CCN(C(=O)c2cccc(Cn3c(=O)[nH]c(=O)c4ccccc43)c2)CC1 = Not met
• O=C(c1cc(Cn2c(=O)[nH]c(=O)c3c(F)cccc32)ccc1F)N1CCC(c2ccccc2)CC1 = Not met
• COc1ccc(C(=O)N2CCN(C(=O)c3cccc(Cn4c(=O)[nH]c(=O)c5ccccc54)c3)CC2)cc1 = Not met
• O=C(c1cc(Cn2c(=O)[nH]c(=O)c3c(F)cccc32)ccc1F)N1CCN(c2ncccn2)CC1 = Met
• O=C(c1ccc(F)c(Cn2c(=O)[nH]c(=O)c3cc(Cl)ccc32)c1)N1CCN(C(=O)C2CCC2)CC1 = Met
• O=C(c1cccc(Cn2c(=O)[nH]c(=O)c3cc([N+](=O)[O-])ccc32)c1)N1CCN(c2ncccn2)CC1 = Not met
• O=C(c1ccc(Cn2c(=O)[nH]c(=O)c3ccccc32)cc1)N1CCN(C(=O)C2CCCC2)CC1 = Not met

* * *

Here the recorded IC50 is given for each entry.
tested on: SW620 human colorectal cancer cells; assay: MTT based cell viability assay: potentiation of the growth inhibiting activity of MMS; conditions: Homo sapiens, SW-620, 120 h, read-out: IC50 (nM), potentiation of the growth inhibiting activity of MMS, SW620 cells, 1.7 μg/ml MMS, 5 days (120 hours), MTT
READOUT LABEL: IC50 (nM)

- O=C(c1cccc(Cn2c(=O)[nH]c(=O)c3cc(Cl)ccc32)c1)N1CCN(C(=O)C2CCCC2)CC1: 14
- O=C(c1cc(Cn2c(=O)[nH]c(=O)c3c(Cl)cccc32)ccc1F)N1CCN(C(=O)C2CCCC2)CC1: 8.3
- O=C(c1ccc(Cl)cc1)N1CCN(C(=O)c2cccc(Cn3c(=O)[nH]c(=O)c4ccccc43)c2)CC1: 439
- O=C(c1ccc(F)c(Cn2c(=O)[nH]c(=O)c3c(Cl)cccc32)c1)N1CCN(c2ncccn2)CC1: 72
- O=C(c1cc(Cn2c(=O)[nH]c(=O)c3ccccc32)ccc1F)N1CCN(c2nsc3ccccc23)CC1: 51
- O=C(c1ccc(F)c(Cn2c(=O)[nH]c(=O)c3c(F)cccc32)c1)N1CCN(c2ccccn2)CC1: 23
- O=C(c1cc(Cn2c(=O)[nH]c(=O)c3c(F)cccc32)ccc1F)N1CCN(c2ccccn2)CC1: 6.8
- O=C(c1ccc(Cl)c(Cn2c(=O)[nH]c(=O)c3ccccc32)c1)N1CCN(c2ncccn2)CC1: 30
- O=C(c1cccc(Cn2c(=O)[nH]c(=O)c3cc(F)ccc32)c1)N1CCN(C(=O)C2CCC2)CC1: 12
- O=C(c1ccccc1)N1CCN(C(=O)c2cccc(Cn3c(=O)[nH]c(=O)c4ccccc43)c2)CC1: 112
- O=C(c1cccc(Cn2c(=O)[nH]c(=O)c3c(Cl)cccc32)c1)N1CCN(c2ncccn2)CC1: 202
- O=C(c1ccc(F)c(Cn2c(=O)[nH]c(=O)c3c(Cl)cccc32)c1)N1CCN(C(=O)c2cccs2)CC1: 70
- O=C(c1ccc(F)c(Cn2c(=O)[nH]c(=O)c3ccccc32)c1)N1CCN(C(=O)C2CCCCC2)CC1: 32
- O=C(c1cccc(Cn2c(=O)[nH]c(=O)c3cc(Cl)ccc32)c1)N1CCN(C(=O)c2cccs2)CC1: 19
- O=C(c1cc(Cn2c(=O)[nH]c(=O)c3cc(Cl)ccc32)ccc1F)N1CCN(C(=O)C2CCC2)CC1: 3.4
- O=C(c1cc(Cn2c(=O)[nH]c(=O)c3cc(Cl)ccc32)ccc1F)N1CCN(C(=O)C2CCCCC2)CC1: 0.72
- O=C(c1cccs1)N1CCN(C(=O)c2cc(Cn3c(=O)[nH]c(=O)c4ccccc43)ccc2F)CC1: 21
- O=C(c1cc(Cn2c(=O)[nH]c(=O)c3c(F)cccc32)ccc1Br)N1CCN(c2ncccn2)CC1: 1390
- O=C(c1ccc(Cl)c(Cn2c(=O)[nH]c(=O)c3ccccc32)c1)N1CCN(c2ccccn2)CC1: 171
- O=C(c1cccc(Cn2c(=O)[nH]c(=O)c3cc(Cl)ccc32)c1)N1CCN(C(=O)C2CCCCC2)CC1: 9.6
- O=C(c1cccc(Cn2c(=O)[nH]c(=O)c3ccc(Cl)cc32)c1)N1CCN(C(=O)C2CCCC2)CC1: 1190
- O=C(c1ccccc1)N1CCN(C(=O)c2cc(Cn3c(=O)[nH]c(=O)c4ccccc43)ccc2F)CC1: 34
- O=C(c1cc(Cn2c(=O)[nH]c(=O)c3cc(F)ccc32)ccc1F)N1CCN(C(=O)C2CCCCC2)CC1: 2.7
- O=C(c1ccc(F)c(Cn2c(=O)[nH]c(=O)c3c(Cl)cccc32)c1)N1CCN(C(=O)C2CCC2)CC1: 120
- O=C(c1cccc(Cn2c(=O)[nH]c(=O)c3cccc(F)c32)c1)N1CCN(c2ncccn2)CC1: 103
- O=c1[nH]c(=O)n(Cc2cccc(CN3CCN(c4ccccn4)CC3)c2)c2ccccc12: 1440
- O=C(c1ccc(F)c(Cn2c(=O)[nH]c(=O)c3ccccc32)c1)N1CCN(c2ccccn2)CC1: 33
